# testTarget: full-length beta-Catenin (Uniprot ID P35222) (Homo sapiens (Human)) (UniProt P35222)
# Sequence (P35222 2-781 limits assumed): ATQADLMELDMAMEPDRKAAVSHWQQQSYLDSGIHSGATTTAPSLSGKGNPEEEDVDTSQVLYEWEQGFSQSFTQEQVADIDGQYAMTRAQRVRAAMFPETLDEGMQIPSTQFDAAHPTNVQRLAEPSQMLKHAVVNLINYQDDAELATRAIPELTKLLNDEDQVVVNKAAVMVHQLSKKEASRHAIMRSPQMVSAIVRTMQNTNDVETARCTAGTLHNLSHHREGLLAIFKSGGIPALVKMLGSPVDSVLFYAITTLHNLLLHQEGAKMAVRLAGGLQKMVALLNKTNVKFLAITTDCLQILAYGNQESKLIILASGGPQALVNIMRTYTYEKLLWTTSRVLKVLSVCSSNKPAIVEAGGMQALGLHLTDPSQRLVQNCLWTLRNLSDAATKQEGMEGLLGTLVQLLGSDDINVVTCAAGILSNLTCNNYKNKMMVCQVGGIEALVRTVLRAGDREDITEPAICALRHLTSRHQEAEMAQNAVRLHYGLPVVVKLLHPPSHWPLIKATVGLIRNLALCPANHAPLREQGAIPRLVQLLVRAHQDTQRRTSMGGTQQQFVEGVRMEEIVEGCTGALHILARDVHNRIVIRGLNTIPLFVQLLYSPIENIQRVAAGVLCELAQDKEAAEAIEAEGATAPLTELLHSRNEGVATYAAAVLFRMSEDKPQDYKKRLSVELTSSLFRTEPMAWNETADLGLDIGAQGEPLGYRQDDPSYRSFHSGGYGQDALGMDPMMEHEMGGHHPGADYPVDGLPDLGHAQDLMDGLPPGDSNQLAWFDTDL
# assayOverview: fluorescence polarization competition; 5FAM-TCF4(10-53) probe displaced from full-length beta-catenin
Starred links: 1 amine or outer side, 2 acyl side, 3 side chain; linkers in the order of their positions; H or OH if unused. Positions of bridges follow the written chain, without caps; N, C: chain ends. Non-standard residues stand in square brackets, D forms with d. Primed or numbered codes have the meaning given here. PyrS2″ = (S)-3-amino-1-((pent-4-en-1-yloxy)carbonyl)pyrrolidine-3-carboxylic acid (stapling residue), C=CCCCOC(=O)N1CC[C@@](N[*:1])(C(=O)[*:2])C1; B5(4) = 2,2-bis(4-pentenyl)glycine = 2-amino-2-(pent-4-en-1-yl)hept-6-enoic acid (stitching residue), C=CCCCC(CCCC=C)(N[*:1])C(=O)[*:2]; B5(21) = 2-amino-2-(pent-4-en-1-yl)hept-6-enoic acid, bis(4-pentenyl)glycine (stitching residue), C=CCCCC(CCCC=C)(N[*:1])C(=O)[*:2]; PyrS2 = (S)-3-amino-1-((pent-4-en-1-yloxy)carbonyl)pyrrolidine-3-carboxylic acid, C=CCCCOC(=O)N1CC[C@@](N[*:1])(C(=O)[*:2])C1; B5(22) = 2-amino-2-(pent-4-en-1-yl)hept-6-enoic acid (two alkene side chains), C=CCCCC(CCCC=C)(N[*:1])C(=O)[*:2]; Trp(1-Me) = Cn1cc(C[C@H](N)C(=O)O)c2ccccc21; Bta = N[C@@H](Cc1csc2ccccc12)C(=O)O; αAllylPro = C=CC[C@@]1(C(=O)O)CCCN1; tBuAla = CC(C)(C)C[C@H](N)C(=O)O; 3Thi = N[C@@H](Cc1ccsc1)C(=O)O
reportedProperty: pIC50
pIC50 field: float, defined as -log10 of concentration (mol/L).

Q) Please give the measured pIC50 for this binder: Ac-[αAllylPro]D[tBuAla][B5(22)]DDAAFL[PyrS2][3Thi][Trp(1-Me)]Q-NH2 (staple 1-4, 4-11) [I-1433]
A) 7.15

Q) Please give the measured pIC50 for this binder: Ac-[αAllylPro]DS[B5(21)]DDAAFL[PyrS2″][3Thi][Bta]L-NH2 (staple 1-4, 4-11) [I-1414]
A) 7.08

Q) Please give the measured pIC50 for this binder: Ac-[αAllylPro]D[tBuAla][B5(4)]DDAAFL[PyrS2][3Thi]WS-NH2 (staple 1-4, 4-11) [I-1432]
A) 7.57
